measurement-target: NADPH oxidase 4 (Homo sapiens, UniProt Q9NPH5)
Sequence (Q9NPH5 whole entry): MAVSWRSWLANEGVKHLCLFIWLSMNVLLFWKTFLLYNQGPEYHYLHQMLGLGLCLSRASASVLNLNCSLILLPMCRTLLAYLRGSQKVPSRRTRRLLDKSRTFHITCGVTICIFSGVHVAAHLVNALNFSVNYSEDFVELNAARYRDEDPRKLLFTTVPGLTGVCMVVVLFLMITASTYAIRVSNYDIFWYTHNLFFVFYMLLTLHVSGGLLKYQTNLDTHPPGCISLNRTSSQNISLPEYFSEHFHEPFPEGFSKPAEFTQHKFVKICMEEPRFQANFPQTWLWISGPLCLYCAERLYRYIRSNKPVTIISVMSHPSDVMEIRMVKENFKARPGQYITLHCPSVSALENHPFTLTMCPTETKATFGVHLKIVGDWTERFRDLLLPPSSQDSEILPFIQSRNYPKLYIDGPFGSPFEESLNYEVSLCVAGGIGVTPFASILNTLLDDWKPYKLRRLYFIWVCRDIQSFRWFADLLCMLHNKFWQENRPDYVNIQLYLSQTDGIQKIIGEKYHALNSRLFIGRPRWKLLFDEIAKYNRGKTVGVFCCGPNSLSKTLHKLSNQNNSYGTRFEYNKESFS
test-method-notes: Inhibition of human NOX4 overexpressed in T-REx-293 cell membrane assessed as ROS production by cell free assay in presence of NADPH
applied-conditions: in the assay text read “T-REx-293 cell membrane” for “human PMN cell membrane”
property-label: log10(Ki) (log10 of the value in nM)

{"compound-string": "COc1cccc(CC(=O)n2c3cc(=O)n(Cc4cccnc4)c(C)c3c(=O)n2-c2ccccc2)c1", "log10(Ki)": 2.45}
{"compound-string": "Cc1c2c(=O)n(Cc3ccccc3)[nH]c2cc(=O)n1Cc1ccccn1", "log10(Ki)": 2.67}
{"compound-string": "Cc1c2c(=O)n(-c3ccccc3Cl)[nH]c2cc(=O)n1Cc1ccc(CN2CCN(C)CC2)cc1", "log10(Ki)": 2.71}
{"compound-string": "Cc1c2c(=O)n(-c3ccc(S(=O)(=O)N4CCN(C)CC4)cn3)[nH]c2cc(=O)n1C", "log10(Ki)": 3.15}
{"compound-string": "Cc1c2c(=O)n(-c3ccc(F)cc3Cl)[nH]c2cc(=O)n1Cc1ccccn1", "log10(Ki)": 2.37}
{"compound-string": "Cc1c2c(=O)n(CCOc3ccc(Cl)cc3)[nH]c2cc(=O)n1Cc1ccccn1", "log10(Ki)": 2.51}
{"compound-string": "O=c1c2c(COCc3ccccc3)n(Cc3cnccn3)c(=O)cc2[nH]n1-c1ccccc1Cl", "log10(Ki)": 1.98}
{"compound-string": "Cc1c2c(=O)n(-c3ccccc3Cl)[nH]c2cc(=O)n1Cc1ccccn1", "log10(Ki)": 2.22}
{"compound-string": "Cc1c2c(=O)n(C)[nH]c2cc(=O)n1Cc1ccccn1", "log10(Ki)": 2.59}
{"compound-string": "Cc1c2c(=O)n(-c3ccccc3Cl)[nH]c2cc(=O)n1Cc1ccc(S(N)(=O)=O)cc1", "log10(Ki)": 2.41}
{"compound-string": "Cc1c2c(=O)n(Cc3ccc(Cl)cc3)[nH]c2cc(=O)n1Cc1ccccn1", "log10(Ki)": 2.41}
{"compound-string": "Cc1c2c(=O)n(-c3nc4ccccc4s3)[nH]c2cc(=O)n1N1CCOCC1", "log10(Ki)": 3.08}
{"compound-string": "Cc1c2c(=O)n(-c3ccccc3Cl)[nH]c2cc(=O)n1CCCO", "log10(Ki)": 2.75}
{"compound-string": "Cc1c2c(=O)n(Cc3cc(Cl)ccc3Cl)[nH]c2cc(=O)n1Cc1ccccn1", "log10(Ki)": 2.34}
{"compound-string": "Cn1c(COc2ccc(F)cc2)c2c(=O)n(-c3ccccc3Cl)[nH]c2cc1=O", "log10(Ki)": 2.06}
{"compound-string": "CN(Cc1c2c(=O)n(-c3ccccc3Cl)[nH]c2cc(=O)n1Cc1ccncc1)c1ccccc1", "log10(Ki)": 2.18}
{"compound-string": "Cc1c2c(=O)n(Cc3ccc(F)cc3Cl)[nH]c2cc(=O)n1Cc1ccccn1", "log10(Ki)": 2.53}
{"compound-string": "Cc1c2c(=O)n(-c3nc(-c4ccccc4)cs3)[nH]c2cc(=O)n1C", "log10(Ki)": 3.29}
{"compound-string": "COCCCn1c(CN(C)Cc2ccccc2)c2c(=O)n(-c3ccc(F)cc3Cl)[nH]c2cc1=O", "log10(Ki)": 2.22}
{"compound-string": "CC(=O)n1c2cc(=O)n(Cc3cccnc3)c(C)c2c(=O)n1-c1ccccc1C", "log10(Ki)": 2.60}
{"compound-string": "Cc1c2c(=O)n(-c3ccccc3Cl)[nH]c2cc(=O)n1Cc1cccc(N2CCOCC2)n1", "log10(Ki)": 2.37}
{"compound-string": "Cc1c2c(=O)n(CCc3ccccc3)[nH]c2cc(=O)n1Cc1ccccn1", "log10(Ki)": 2.52}
{"compound-string": "Cc1c2c(=O)n(-c3ccccc3)[nH]c2cc(=O)n1CCc1ccccc1", "log10(Ki)": 3.72}
{"compound-string": "Cc1c2c(=O)n(-c3ccc(F)cc3Cl)[nH]c2cc(=O)n1C", "log10(Ki)": 2.33}
{"compound-string": "CC(=O)n1c2cc(=O)n(Cc3cccnc3)c(C)c2c(=O)n1-c1ccccc1Cl", "log10(Ki)": 2.38}
{"compound-string": "Cc1c2c(=O)n(-c3ccccc3)[nH]c2cc(=O)n1Cc1ccc2c(c1)OCO2", "log10(Ki)": 3.74}
{"compound-string": "Cn1c(-c2ccccc2F)c2c(=O)n(-c3ccccc3Cl)[nH]c2cc1=O", "log10(Ki)": 2.11}
{"compound-string": "COCCn1[nH]c2cc(=O)n(Cc3ccccn3)c(C)c2c1=O", "log10(Ki)": 2.50}
{"compound-string": "Cc1c2c(=O)n(-c3cccc(Cl)c3)[nH]c2cc(=O)n1C", "log10(Ki)": 2.53}
{"compound-string": "Cc1c2c(=O)n(-c3ccccc3)[nH]c2cc(=O)n1Cc1cccnc1", "log10(Ki)": 2.57}
{"compound-string": "COc1cccc(N2CCN(Cc3c4c(=O)n(-c5ccccc5Cl)[nH]c4cc(=O)n3C)CC2)c1", "log10(Ki)": 1.81}
{"compound-string": "Cc1ccccc1-n1[nH]c2cc(=O)n(Cc3ccccn3)c(C)c2c1=O", "log10(Ki)": 2.24}
{"compound-string": "Cc1c2c(=O)n(C)[nH]c2cc(=O)n1C", "log10(Ki)": 3.34}
{"compound-string": "Cc1c2c(=O)n(-c3ccc(F)cc3)[nH]c2cc(=O)n1Cc1ccccc1", "log10(Ki)": 2.94}
{"compound-string": "Cc1c2c(=O)n(-c3ccccc3Cl)[nH]c2cc(=O)n1CCCC(=O)N1CCN(C)CC1", "log10(Ki)": 2.63}
{"compound-string": "Cc1c2c(=O)n(-c3ccccc3Cl)[nH]c2cc(=O)n1C", "log10(Ki)": 2.33}
{"compound-string": "Cc1c2c(=O)n(-c3ccc(OCc4ccccc4)cc3)[nH]c2cc(=O)n1C", "log10(Ki)": 3.49}
